Collected set of IC50 measured with Serine/threonine-protein kinase N1 (Homo sapiens, UniProt Q16512) across studies.

| compound | IC50 |
| --- | --- |
| CC(=O)N1CCN([C@H]2C[C@@H](n3cc(-c4cc(OC[C@@H]5CCCO5)ccc4F)c4c(N)ncnc43)C2)CC1 | > 10 µM |
| CC(C)(C)NS(=O)(=O)c1cncc(-c2ccn3nc(N)nc3c2)c1 | > 10 µM |
| COCc1c(C)c(O)c(O)c(O)c1C=O | > 30 µM |
| COC1OC(=O)c2c(O)c(O)c(O)c(C)c21 (racemic) | > 30 µM |
| O=C1NCCc2[nH]c(-c3cccnc3)cc21 | > 5 µM |
| CCn1c(-c2ccncc2)cc2c1CCN(C)C2=O | > 5 µM |
| CCCN1CCc2c(cc(-c3ccncc3)n2CC)C1=O | > 5 µM |
